# TARGET_OR_SYSTEM: recombinant human wild type Cyp18 (Cyp18 wt) (Homo sapiens, UniProt P62937)
# Sequence (P62937 whole entry): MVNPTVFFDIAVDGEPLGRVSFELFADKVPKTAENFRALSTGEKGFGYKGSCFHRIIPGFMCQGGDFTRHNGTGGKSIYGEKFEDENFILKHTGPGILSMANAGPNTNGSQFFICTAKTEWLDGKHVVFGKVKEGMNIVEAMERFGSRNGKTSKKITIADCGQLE
# EXPERIMENT_SUMMARY: biochemical
Mark each entry True if its IC50 sits below 10 nM, and False for all others.

STRUCTURE_SMILES_STRING	TARGET_OR_SYSTEM	ASSIGNED_CLASS
CC[C@@H]1NC(=O)[C@H]([C@H](O)[C@H](C)Cc2nc3cc(C(=O)O)ccc3o2)N(C)C(=O)[C@H](C(C)C)N(C)C(=O)[C@H](CC(C)C)N(C)C(=O)[C@H](CC(C)C)N(C)C(=O)[C@@H](C)NC(=O)[C@H](C)NC(=O)[C@H](CC(C)C)N(C)C(=O)[C@H](C(C)C)NC(=O)[C@H](CC(C)C)N(C)C(=O)CN(C)C1=O	recombinant human wild type Cyp18 (Cyp18 wt) (Homo sapiens, UniProt P62937)	False
CC[C@@H]1NC(=O)[C@H]([C@H](O)[C@H](C)Cc2nc3cc(C(=O)OC)c(C(=O)OC)cc3[nH]2)N(C)C(=O)[C@H](C(C)C)N(C)C(=O)[C@H](CC(C)C)N(C)C(=O)[C@H](CC(C)C)N(C)C(=O)[C@@H](C)NC(=O)[C@H](C)NC(=O)[C@H](CC(C)C)N(C)C(=O)[C@H](C(C)C)NC(=O)[C@H](CC(C)C)N(C)C(=O)CN(C)C1=O	recombinant human wild type Cyp18 (Cyp18 wt) (Homo sapiens, UniProt P62937)	False
CC[C@@H]1NC(=O)[C@H]([C@H](O)[C@H](C)Cc2nc3cccc(C(=O)OC)c3[nH]2)N(C)C(=O)[C@H](C(C)C)N(C)C(=O)[C@H](CC(C)C)N(C)C(=O)[C@H](CC(C)C)N(C)C(=O)[C@@H](C)NC(=O)[C@H](C)NC(=O)[C@H](CC(C)C)N(C)C(=O)[C@H](C(C)C)NC(=O)[C@H](CC(C)C)N(C)C(=O)CN(C)C1=O	recombinant human wild type Cyp18 (Cyp18 wt) (Homo sapiens, UniProt P62937)	False
CC[C@@H]1NC(=O)[C@H]([C@H](O)[C@H](C)Cc2nc3cc(-c4ccc(N)c(N)c4)ccc3[nH]2)N(C)C(=O)[C@H](C(C)C)N(C)C(=O)[C@H](CC(C)C)N(C)C(=O)[C@H](CC(C)C)N(C)C(=O)[C@@H](C)NC(=O)[C@H](C)NC(=O)[C@H](CC(C)C)N(C)C(=O)[C@H](C(C)C)NC(=O)[C@H](CC(C)C)N(C)C(=O)CN(C)C1=O	recombinant human wild type Cyp18 (Cyp18 wt) (Homo sapiens, UniProt P62937)	True
CC[C@@H]1NC(=O)[C@H]([C@H](O)[C@H](C)Cc2nc3cc(C(=O)NCCN4CCNCC4)ccc3[nH]2)N(C)C(=O)[C@H](C(C)C)N(C)C(=O)[C@H](CC(C)C)N(C)C(=O)[C@H](CC(C)C)N(C)C(=O)[C@@H](C)NC(=O)[C@H](C)NC(=O)[C@H](CC(C)C)N(C)C(=O)[C@H](C(C)C)NC(=O)[C@H](CC(C)C)N(C)C(=O)CN(C)C1=O	recombinant human wild type Cyp18 (Cyp18 wt) (Homo sapiens, UniProt P62937)	False
CC[C@@H]1NC(=O)[C@H]([C@H](O)[C@H](C)Cc2nc3cc(C(=O)N[C@@H](CCC(=O)OCc4ccccc4)C(=O)N[C@@H](CCC(=O)OCc4ccccc4)C(N)=O)ccc3[nH]2)N(C)C(=O)[C@H](C(C)C)N(C)C(=O)[C@H](CC(C)C)N(C)C(=O)[C@H](CC(C)C)N(C)C(=O)[C@@H](C)NC(=O)[C@H](C)NC(=O)[C@H](CC(C)C)N(C)C(=O)[C@H](C(C)C)NC(=O)[C@H](CC(C)C)N(C)C(=O)CN(C)C1=O	recombinant human wild type Cyp18 (Cyp18 wt) (Homo sapiens, UniProt P62937)	False
CC[C@@H]1NC(=O)[C@H]([C@H](O)[C@H](C)Cc2nc3cc(/C=C/C(=O)O)ccc3[nH]2)N(C)C(=O)[C@H](C(C)C)N(C)C(=O)[C@H](CC(C)C)N(C)C(=O)[C@H](CC(C)C)N(C)C(=O)[C@@H](C)NC(=O)[C@H](C)NC(=O)[C@H](CC(C)C)N(C)C(=O)[C@H](C(C)C)NC(=O)[C@H](CC(C)C)N(C)C(=O)CN(C)C1=O	recombinant human wild type Cyp18 (Cyp18 wt) (Homo sapiens, UniProt P62937)	True
CC[C@@H]1NC(=O)[C@H]([C@H](O)[C@H](C)Cc2nc3cc(C(=O)NCCN4CCOCC4)ccc3[nH]2)N(C)C(=O)[C@H](C(C)C)N(C)C(=O)[C@H](CC(C)C)N(C)C(=O)[C@H](CC(C)C)N(C)C(=O)[C@@H](C)NC(=O)[C@H](C)NC(=O)[C@H](CC(C)C)N(C)C(=O)[C@H](C(C)C)NC(=O)[C@H](CC(C)C)N(C)C(=O)CN(C)C1=O	recombinant human wild type Cyp18 (Cyp18 wt) (Homo sapiens, UniProt P62937)	False

A record lists CC[C@@H]1NC(=O)[C@H]([C@H](O)[C@H](C)Cc2nc3nc(O)nc(O)c3[nH]2)N(C)C(=O)[C@H](C(C)C)N(C)C(=O)[C@H](CC(C)C)N(C)C(=O)[C@H](CC(C)C)N(C)C(=O)[C@@H](C)NC(=O)[C@H](C)NC(=O)[C@H](CC(C)C)N(C)C(=O)[C@H](C(C)C)NC(=O)[C@H](CC(C)C)N(C)C(=O)CN(C)C1=O . Is its IC50 below 10 nM?
True
